System: SF-268
Assay: Cytotoxicity against SF268 cells
Type: functional, cell-based
Conditions: Homo sapiens
Activity calls are given as the source filed them. No cut-off for these calls is given here.
readoutKind: Activity

Example entries and their recorded answers appear below.
COC(=O)Cc1cc(I)c(OC)c(I)c1 = inactive
O=C(NC(C(=O)O)c1ccc(O)c(I)c1)c1ccccc1 (configuration not stated) = inactive
COc1ccc(C(OC(C)=O)C(=O)O)cc1I (configuration not stated) = inactive
COC(=O)C(Sc1ccccc1)c1ccc(OC)c(I)c1 (configuration not stated) = inactive
COC(=O)C(NC(=O)c1ccccc1)c1ccc(OC)c(I)c1 (configuration not stated) = Active

Fill in the blank: the reported Activity of CC(C)(C)[Si](Oc1ccc(C(NC(=O)c2ccccc2)C(=O)O)cc1I)(c1ccccc1)c1ccccc1 (configuration not stated) is ____. Active

Need Activity of COC(=O)C(OC(C)=O)c1ccc(OC)c(I)c1 (configuration not stated) , thanks. inactive

Endpoint output: Activity of COC(=O)Nc1ccc(C(NC(=O)c2ccccc2)C(=O)O)cc1I (configuration not stated) . Value? inactive

Which Activity value belongs to COc1ccc(C(O)C(=O)O)cc1I (configuration not stated) ? inactive

What Activity value was documented for this compound, COC(=O)C(c1ccc(OC)c(I)c1)N1C(=O)c2ccccc2C1=O (configuration not stated) ? inactive

Consider the compound shown here: `COC(=O)Cc1ccc(OC)c(I)c1` What is its recorded Activity? inactive

I am curious: what Activity value has been reported for COC(=O)C(O)c1ccc(OC)c(I)c1 (configuration not stated) ? inactive
